- procedure_summary: Plasma pharmacokinetics of dasatinib in study patients
- reported_conditions: human, plasma, oral, 70 mg
reported_property: AUC(0-inf) (ng·h/mL)
Field format: number, assumed ng·h/mL, no unit text.

Given the compound Cc1nc(Nc2ncc(C(=O)Nc3c(C)cccc3Cl)s2)cc(N2CCN(CCO)CC2)n1 [Dasatinib] , what is its reported AUC(0-inf)?
206

###

- procedure_summary: Plasma pharmacokinetics of dasatinib in study patients
- reported_conditions: human, plasma, oral, 70 mg, Tmax, dasatinib 70 mg, with ATRA, mean (SD), N=6
reported_property: Tmax (h)
Numeric answer only, unit h assumed.

So what's the measured Tmax for this one? "Cc1nc(Nc2ncc(C(=O)Nc3c(C)cccc3Cl)s2)cc(N2CCN(CCO)CC2)n1"
1.7
